molecular target: mushroom tyrosinase (Agaricus bisporus, UniProt C7FF04); experiment: Mushroom tyrosinase inhibition assay (L-DOPA, dopachrome at 492 nm); format: biochemical; parameters: purchased Sigma Chemical Co. USA; details: Con: as-synthesized, before plasma treatment; cell-free; mean ± SD; read-out: Tyrosinase inhibitory activity IC50 (converted)
Sequence (C7FF04 1-392): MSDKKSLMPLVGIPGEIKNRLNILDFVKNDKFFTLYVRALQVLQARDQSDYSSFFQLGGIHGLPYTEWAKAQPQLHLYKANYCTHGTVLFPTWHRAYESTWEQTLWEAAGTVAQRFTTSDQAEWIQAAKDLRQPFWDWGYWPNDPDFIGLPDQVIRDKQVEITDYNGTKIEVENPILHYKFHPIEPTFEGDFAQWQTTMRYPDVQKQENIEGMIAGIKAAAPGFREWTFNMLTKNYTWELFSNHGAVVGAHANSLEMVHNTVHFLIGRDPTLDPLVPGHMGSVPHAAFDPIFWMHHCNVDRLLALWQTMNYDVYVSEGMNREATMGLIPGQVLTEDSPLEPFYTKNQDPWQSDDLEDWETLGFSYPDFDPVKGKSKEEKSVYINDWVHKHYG
metric_name: IC50

INSERT INTO results (smiles_structure, metric_name, measured_result) VALUES
  ('C=CCc1ccc(OC(=O)COC(=O)/C=C/c2ccc(O)cc2)c(OC)c1', 'IC50', '13.6 µM'),
  ('C=CCc1ccc(OC(=O)COC(=O)c2cc(O)cc(O)c2)c(OC)c1', 'IC50', '53 µM'),
  ('C=CCc1ccc(OC(=O)COC(=O)c2ccc(O)c(O)c2)c(OC)c1', 'IC50', '162 µM'),
  ('C=CCc1ccc(OC(=O)COC(=O)c2ccc(O)cc2)c(OC)c1', 'IC50', '84.7 µM'),
  ('C=CCc1ccc(OC(=O)COC(=O)c2ccc(O)cc2O)c(OC)c1', 'IC50', '41.9 µM');

Parameters: items (list). Returns: IC50 for each item.
1. C=CCc1ccc(OC(=O)COC(=O)/C=C/c2ccc(Cl)cc2)c(OC)c1
2. C=CCc1ccc(OC(=O)COC(=O)c2cccc(O)c2)c(OC)c1

A)
18.1 µM
73 µM

----------
Assign β-sheet % of tyrosinase to each entry below.
target: mushroom tyrosinase (Agaricus bisporus, UniProt C7FF04); assay: Circular dichroism analysis of the secondary structure of mushroom tyrosinase; details: tyrosinase + as-synthesized compound (0 min plasma), 0.1 mM; enzyme alone 33
Sequence (C7FF04 2-392): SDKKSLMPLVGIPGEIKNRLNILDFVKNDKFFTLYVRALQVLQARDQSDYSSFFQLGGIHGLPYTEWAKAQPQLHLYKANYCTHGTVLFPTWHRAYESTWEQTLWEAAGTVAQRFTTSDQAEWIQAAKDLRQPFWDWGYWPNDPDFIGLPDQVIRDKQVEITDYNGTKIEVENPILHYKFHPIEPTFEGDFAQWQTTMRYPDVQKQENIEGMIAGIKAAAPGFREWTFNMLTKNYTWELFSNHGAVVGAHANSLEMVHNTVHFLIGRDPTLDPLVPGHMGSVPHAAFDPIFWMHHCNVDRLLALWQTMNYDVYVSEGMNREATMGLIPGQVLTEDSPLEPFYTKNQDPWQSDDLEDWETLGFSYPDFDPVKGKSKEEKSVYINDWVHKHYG
Numbers only, in %.

Sample records with β-sheet % of tyrosinase:
INSERT INTO results (smiles_structure, metric_name, unit_spec, measured_result) VALUES
  ('C=CCc1ccc(OC(=O)COC(=O)c2ccc(O)cc2)c(OC)c1', 'β-sheet % of tyrosinase', '%', 29),
  ('C=CCc1ccc(OC(=O)COC(=O)c2cccc(O)c2)c(OC)c1', 'β-sheet % of tyrosinase', '%', 35),
  ('C=CCc1ccc(OC(=O)COC(=O)c2cc(O)cc(O)c2)c(OC)c1', 'β-sheet % of tyrosinase', '%', 33);

Parameters: items (list). Returns: β-sheet % of tyrosinase for each item.
1. C=CCc1ccc(OC(=O)COC(=O)/C=C/c2ccc(O)cc2)c(OC)c1
2. C=CCc1ccc(OC(=O)COC(=O)c2ccc(O)cc2O)c(OC)c1
3. C=CCc1ccc(OC(=O)COC(=O)c2ccc(O)c(O)c2)c(OC)c1
4. C=CCc1ccc(OC(=O)COC(=O)/C=C/c2ccc(Cl)cc2)c(OC)c1

A)
25
35
33
37
